Conditions: 303.15 K; 101 kPa; Liquid
Measurement Kind: mass density (kg/m3)

molecule="OCCCO [propan-1,3-diol]" reported_measurement=1047.09
molecule="CC(O)CO (centres undefined) [1,2-propanediol]" reported_measurement=1029.15
molecule="OCCO [1,2-ethanediol]" reported_measurement=1106.82
molecule="OCCCCO [1,4-butanediol]" reported_measurement=1009.96

###

In this section, each of the compounds is paired with its reported mass density.
Settings: 293.15 K; 101 kPa; Liquid
Measurement Kind: mass density (kg/m3)

compound=OCCO units_symbol=kg/m3 reported_measurement=1113.55
compound=OCCCO units_symbol=kg/m3 reported_measurement=1053.66
compound=OCCCCO units_symbol=kg/m3 reported_measurement=1016.37
compound="CC(O)CO (centres undefined)" units_symbol=kg/m3 reported_measurement=1036.57
